Target: human full-length VWF (human, UniProt P04275 764-2813)
Test: SPR, Biacore T200, antibody captured on Protein A, full-length VWF as analyte, single-cycle kinetics
measured_parameter: koff (s⁻¹)
Response body: numeric value in s⁻¹, unit text excluded.

Examples with answers:
1-D5_H0_VL-par (antibody, human IgG1, kappa, V domains shown, also called 1-D5_H0 (hIgG1)) VH: QVQLVESGGGVVQPGRSLRLSCAASGFTFSNYIMGWVRQAPGKGLEWVAIISTGGSTYYASWAKGRFTISRDNSKNTLYLQMNSLRAEDTAVYYCARGGSSAGAGFNIWGQGTLVTVSS VL: DIVMTQTPSSVSAAVGDTVTIQCQASQSINSGLAWYQQKPGQPPKRLIYKASTLASGVPSRFRGSGSGTDFTLTISDLECADAATYYCQSYHYISANGATFGGGTEVVVET
2.38e-09
1-D5_H0_L1 (antibody, human IgG1, kappa, V domains shown, humanised, human IgG1 kappa) VH: QVQLVESGGGVVQPGRSLRLSCAASGFTFSNYIMGWVRQAPGKGLEWVAIISTGGSTYYASWAKGRFTISRDNSKNTLYLQMNSLRAEDTAVYYCARGGSSAGAGFNIWGQGTLVTVSS VL: DIQMTQSPSSLSASVGDRVTITCQASQSINSGLAWYQQKPGKAPKRLIYKASTLASGVPSRFSGSGSGTDFTLTISSLQPEDFATYYCQSYHYISANGATFGGGTKVEIKT
2.99e-07
1-D5_VH-par_L1 (antibody, human IgG1, kappa, V domains shown, also called 1-D5_L1 (hIgG1K)) VH: QQQLVESGGRLVTPGTPLTLTCAVSGFSLNNYIMGWVRQAPGKGLEYIGIISTGGSTYYASWAKGRFTISRTSTTMDLKMTSLTTEDTATYFCARGGSSAGAGFNIWGPGTLVTVSS VL: DIQMTQSPSSLSASVGDRVTITCQASQSINSGLAWYQQKPGKAPKRLIYKASTLASGVPSRFSGSGSGTDFTLTISSLQPEDFATYYCQSYHYISANGATFGGGTKVEIKT
7.91e-06
1-D5_VH-par_L0 (antibody, human IgG1, kappa, V domains shown, also called 1-D5_L0 (hIgG1K)) VH: QQQLVESGGRLVTPGTPLTLTCAVSGFSLNNYIMGWVRQAPGKGLEYIGIISTGGSTYYASWAKGRFTISRTSTTMDLKMTSLTTEDTATYFCARGGSSAGAGFNIWGPGTLVTVSS VL: DIQMTQSPSSLSASVGDRVTITCQASQSINSGLAWYQQKPGKAPKLLIYKASTLASGVPSRFSGSGSGTDFTLTISSLQPEDFATYYCQSYHYISANGATFGGGTKVEIKT
6.59e-06

Continue with the binder presented below.
IN: State the recorded koff for this entry: 1-D5_H1_L1 (antibody, human IgG1, kappa, V domains shown, humanised, human IgG1 kappa) VH: QVQLVESGGGVVQPGRSLRLSCAASGFSLNNYIMGWVRQAPGKGLEWVAIISTGGSTYYASWAKGRFTISRDNSKNTLYLQMNSLRAEDTAVYYCARGGSSAGAGFNIWGQGTLVTVSS VL: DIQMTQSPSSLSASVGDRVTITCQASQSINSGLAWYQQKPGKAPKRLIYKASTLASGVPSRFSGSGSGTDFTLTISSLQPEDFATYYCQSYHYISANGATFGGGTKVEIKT
OUT: 6.72e-09
